testedSystem: CDK1/CycB (Homo sapiens, UniProt P06493)
Construct: GST
Sequence (P06493 whole entry): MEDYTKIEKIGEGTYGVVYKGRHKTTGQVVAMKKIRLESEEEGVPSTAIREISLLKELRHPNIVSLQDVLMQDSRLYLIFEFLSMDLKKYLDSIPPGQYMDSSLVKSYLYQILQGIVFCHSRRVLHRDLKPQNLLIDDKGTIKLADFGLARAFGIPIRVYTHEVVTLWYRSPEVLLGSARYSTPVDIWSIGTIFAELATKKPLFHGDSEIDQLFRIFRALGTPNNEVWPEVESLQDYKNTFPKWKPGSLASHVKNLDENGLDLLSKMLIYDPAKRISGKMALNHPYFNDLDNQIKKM
Sequence (P14635 whole entry partner): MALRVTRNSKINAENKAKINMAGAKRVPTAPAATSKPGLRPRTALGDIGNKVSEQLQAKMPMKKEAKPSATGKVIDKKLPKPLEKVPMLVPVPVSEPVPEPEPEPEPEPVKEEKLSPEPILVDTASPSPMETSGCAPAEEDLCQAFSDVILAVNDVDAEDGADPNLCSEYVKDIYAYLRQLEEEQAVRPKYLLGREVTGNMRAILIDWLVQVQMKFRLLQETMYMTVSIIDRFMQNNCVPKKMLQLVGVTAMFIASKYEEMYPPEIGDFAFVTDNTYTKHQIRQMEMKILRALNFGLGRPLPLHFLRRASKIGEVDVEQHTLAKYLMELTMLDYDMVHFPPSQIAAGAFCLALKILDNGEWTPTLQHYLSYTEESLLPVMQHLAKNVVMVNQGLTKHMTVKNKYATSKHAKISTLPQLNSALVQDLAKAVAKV
runDescription: CDK1/CycB kinase assay (33P-ATP incorporation into histone IIIS, filter strip scintillation)
settings: recombinant CDK1- and CycB-GST fusion proteins; 0,5 µM ATP; 10 min at 22°C; substrate Histon IIIS; read-out: CDK1/CycB (Assay 1) Konzentration der halbmaximalen Inhibition der Enzymaktivität, IC50
propertyMeasured: IC50 (nM)

(a) C[C@@H](O)[C@@H](C)Oc1nc(Nc2ccc([S+](C)[O-])cc2)ncc1C(F)(F)F (some centres unmarked)
(b) C[C@@H](Oc1nc(Nc2ccc([S+](C)[O-])cc2)ncc1C(F)(F)F)C(C)(C)O (some centres unmarked)
Given the listed items, does a or b have the lesser reported IC50? To answer, give the label that identifies your chosen option. a
(a: 7 nM, b: 30 nM)
